- SYSTEM_UNDER_TEST: JNK2 (Homo sapiens)
- Sequence (P45984 whole entry): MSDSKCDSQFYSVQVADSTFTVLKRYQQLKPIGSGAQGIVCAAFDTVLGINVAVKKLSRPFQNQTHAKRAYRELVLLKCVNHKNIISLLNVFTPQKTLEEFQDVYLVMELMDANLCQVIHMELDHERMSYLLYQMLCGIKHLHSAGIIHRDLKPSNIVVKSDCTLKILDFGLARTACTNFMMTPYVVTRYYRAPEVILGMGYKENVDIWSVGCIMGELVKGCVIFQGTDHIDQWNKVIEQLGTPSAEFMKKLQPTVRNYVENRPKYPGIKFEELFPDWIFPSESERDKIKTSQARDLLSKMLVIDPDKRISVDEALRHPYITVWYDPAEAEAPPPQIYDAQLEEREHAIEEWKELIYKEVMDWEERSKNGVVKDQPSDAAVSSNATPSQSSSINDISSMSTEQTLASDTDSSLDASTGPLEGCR
- ASSAY_EXPLANATION: Promega NanoBRET intracellular target engagement (tracer K10 displacement), JNK2
pIC50: −log10 of the molar value.
QUANTITY_MEASURED: pIC50

CNCc1ccc(NC(=O)c2cc3c(-c4cnc5[nH]ccc5c4)cccc3s2)cc1 = 5.64
Cc1c[nH]c2ncc(-c3cccc4sc(C(=O)Nc5ccc(O)c(C(=O)N(C)C)c5)cc34)cc12 = 6.64
CN(C)C(=O)c1cc(NC(=O)c2cc3c(-c4cnc5[nH]ncc5c4)cccc3s2)ccc1O = 4.96
CNC(=O)c1cc(NC(=O)c2cc3c(-c4cnc5[nH]ccc5c4)cccc3s2)ccc1OC = 5.70
Cc1ccc(NC(=O)c2ccn3ncc(-c4cnc5[nH]ccc5c4)c3c2)cc1 = 6.05
O=C(Nc1ccc(O)c(C(=O)N2CCC2)c1)c1cc2c(-c3cnc4[nH]ccc4c3)cccc2s1 = 6.13
O=C(Nc1ccc(F)cc1)c1ccn2ncc(-c3cnc4[nH]ccc4c3)c2c1 = 6.35
CN(C)C(=O)c1ccc(O)c(NC(=O)c2cc3c(-c4cnc5[nH]ccc5c4)cccc3s2)c1 = 4.79
COc1ccc(NC(=O)c2cc3c(-c4cnc5[nH]ccc5c4)cccc3s2)cc1C(=O)N1CCN(C)CC1 = 6.09
CNC(=O)c1ccn2ncc(-c3cnc4[nH]ccc4c3)c2c1 = 5.27
O=C(Nc1cccc(C(=O)N2CCCCC2)c1)c1cc2c(-c3cnc4[nH]ccc4c3)cccc2s1 = 6.64
